Value source: ChEMBL document CHEMBL1921704

System: Rattus norvegicus
PROTOCOL_TEXT: Dose normalised AUC in rat at 2 mg/kg, po
Format: ADME, organism-based
Parameters: dose 2 mg/kg, route oral
APPLIED_CONDITIONS: in vivo
RESULT_TYPE: AUC/dose (µM·h)

CCCC(Cc1ccc(C(=O)NCCC(=O)O)cc1)C(=O)c1cc2cc(Cl)ccc2n1-c1ccc(Cl)c(C(F)(F)F)c1 (single isomer, unassigned) = 0.52

A = CCC[C@@H](Cc1ccc(C(=O)NCCC(=O)O)cc1)C(=O)c1cc2cc(Cl)ccc2n1-c1cccc(C(F)(F)F)n1
B = CCC[C@@H](Cc1ccc(C(=O)NCCC(=O)O)cc1)C(=O)c1cc2cc(Cl)ccc2n1-c1cccc(C(F)(F)F)c1
Data request: Compare A and B and name the one whose reported AUC/dose is smaller. Mark your selection by writing its label.
Data returned: A
(A: 0.15 µM·h, B: 0.85 µM·h)

====

PROTOCOL_TEXT: Volume of distribution in dog at 0.5 mg/kg, iv and 2 mg/kg, po
Type: ADME, organism-based, Canis lupus familiaris
APPLIED_CONDITIONS: in vivo
RESULT_TYPE: Vd (L/kg)
// return numeric value only (unit: L/kg, not printed)

Data request: Field request: Vd | item: "CCCCC[C@@H](Cc1ccc(C(=O)NCCC(=O)O)cc1)C(=O)c1cc2cc(Cl)ccc2n1-c1cccc(C(F)(F)F)c1"
Data returned: 0.32

====

TARGET_ENTITY: Gastric inhibitory polypeptide receptor (Homo sapiens)
Sequence (P48546 whole entry): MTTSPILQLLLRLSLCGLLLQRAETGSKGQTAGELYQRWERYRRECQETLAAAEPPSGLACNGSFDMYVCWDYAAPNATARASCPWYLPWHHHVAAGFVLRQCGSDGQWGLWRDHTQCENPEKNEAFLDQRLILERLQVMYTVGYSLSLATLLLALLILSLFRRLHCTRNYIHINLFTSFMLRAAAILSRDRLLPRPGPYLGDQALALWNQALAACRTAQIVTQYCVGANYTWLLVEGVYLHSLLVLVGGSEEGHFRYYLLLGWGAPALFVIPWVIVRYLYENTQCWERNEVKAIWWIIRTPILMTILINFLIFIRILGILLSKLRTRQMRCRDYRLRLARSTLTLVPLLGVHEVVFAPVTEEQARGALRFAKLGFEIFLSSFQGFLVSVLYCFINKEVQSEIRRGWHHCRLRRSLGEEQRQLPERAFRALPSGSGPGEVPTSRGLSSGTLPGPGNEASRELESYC
PROTOCOL_TEXT: Antagonist activity at human GIP receptor assessed as inhibition of cAMP production
RESULT_TYPE: pIC50
Kindly note that pIC50 refers to -log10 of the concentration in mol/L and answer with the value alone.

Data request: Field request: pIC50 | item: "CCCCC[C@@H](Cc1ccc(C(=O)NCCC(=O)O)cc1)C(=O)c1cc2cc(Cl)ccc2n1-c1cccc(C(F)(F)F)c1"
Data returned: 5.85

====

PROTOCOL_TEXT: Oral bioavailability in rat
Assay type: ADME, organism-based
APPLIED_CONDITIONS: in vivo
RESULT_TYPE: bioavailability (%)

O=C(Nc1nnn[nH]1)c1ccc(Cn2c(C(=O)c3ccc(OC(F)(F)F)cc3)cc3ccc(C(F)(F)F)cc32)cc1 = 40
CCCC(Cc1ccc(C(=O)NCCC(=O)O)cc1)C(=O)c1cc2cc(Cl)ccc2n1-c1ccc(C(C)(C)C)cc1 (single isomer, unassigned) = 38
